Let's look at some compounds and their measured IC50.
Target: Prothrombin (Homo sapiens, UniProt P00734)
Assay: Thrombin 1536 HTS Dose Response Confirmation. [Related pubchem assays: 1046 (Thrombin 1536 HTS; hits were confirmed in this assay)]
Assay type: functional
The source made the active and inactive calls. Cut-off read from the data, not from the text of the source: actives have a measured IC50 and inactives only a lower limit.
Result type: IC50

[[record]]
compound = "CSCCC(NC(=O)c1cccc(C)c1)C(=O)OCC(=O)NC(=O)c1cccn1C (stereo unspecified)"
target_or_system = "Prothrombin (Homo sapiens, UniProt P00734)"
observed_result = "39 µM (active)"

[[record]]
compound = "CCN(CC)S(=O)(=O)c1ccc2c(c1)c(=O)c(C(=O)NCc1cccs1)cn2C"
target_or_system = "Prothrombin (Homo sapiens, UniProt P00734)"
observed_result = "0.0331 µM (active)"

[[record]]
compound = "Cc1ccc(N2C(S)=NC3c4ccccc4OC2(C)C3C(=O)N(C)C)cc1 (stereo unspecified)"
target_or_system = "Prothrombin (Homo sapiens, UniProt P00734)"
observed_result = "> 50 µM (inconclusive)"

[[record]]
compound = "C/C(=C/C(=O)N1CCN(C)CC1)C(=O)O"
target_or_system = "Prothrombin (Homo sapiens, UniProt P00734)"
observed_result = "> 50 µM (not active)"

[[record]]
compound = "COc1ccc(OCC(=O)N2CCN(Cc3ccc(SC)cc3)CC2)cc1"
target_or_system = "Prothrombin (Homo sapiens, UniProt P00734)"
observed_result = "> 50 µM (not active)"

[[record]]
compound = "CCCc1nc(NC(C)=O)c(C#N)c(-c2ccco2)c1CC"
target_or_system = "Prothrombin (Homo sapiens, UniProt P00734)"
observed_result = "> 50 µM (not active)"

